Test system: SF-539 CNS
assay.text: NCI tumour cell line growth inhibition, 48 h
Entries annotated with measured TGI

>  <test.smiles>
Nc1nc(N)c2ncn(Cc3c(Cl)cccc3Cl)c2n1

>  <TGI>
> 100 µM

$$$$
>  <test.smiles>
COc1cc2c(cc1OC)[C@]1(O)C(=O)c3ccc4c(c3O[C@@H]1CO2)C[C@H](C(C)(C)O)O4

>  <TGI>
> 100 µM

$$$$
>  <test.smiles>
COc1cc([N+](=O)[O-])c(S(=O)(=O)O)cc1-n1nc(-c2ccccc2)n[n+]1-c1cc(S(=O)(=O)[O-])c([N+](=O)[O-])cc1OC

>  <TGI>
> 100 µM

$$$$
>  <test.smiles>
COc1cc2c(c(OC)c1OC)C(=O)c1c-2n(CCCN)c(=O)c2cc([N+](=O)[O-])ccc12

>  <TGI>
1.16 µM

$$$$

---

Tested on: UACC-257 melanoma
assay.text: NCI tumour cell line growth inhibition, 48 h; in the data active = GI50 below about 0.43 µM; inactive = the rest
Classes used: active, inactive

>  <test.smiles>
CCOc1ccc2c(-c3ccnc(Nc4cccc(C(F)(F)F)c4)n3)cnn2n1

>  <label.class>
inactive

$$$$
>  <test.smiles>
CC(=O)[CH-]C(=O)c1ccccc1.CC(=O)[CH-]C(=O)c1ccccc1.[O-]c1ccc(O)cc1.[O-]c1ccc(O)cc1.[Ti+4]

>  <label.class>
inactive

$$$$
>  <test.smiles>
C=C(C)[C@@H]1CC[C@]2(C)[C@H](CC=C3[C@@H]4CC(C)(C)CC[C@]4(C(=O)OC)CC[C@]32C)[C@@]1(C)CC/C(N)=N/O

>  <label.class>
inactive

$$$$
>  <test.smiles>
CN([N-]C(=O)CC(=O)[N-]N(C)C(=S)c1ccccc1)C(=S)c1ccccc1.[Cu+2]

>  <label.class>
active

$$$$
>  <test.smiles>
CN1CCN(c2ccc(NC3=C(Cl)C(=O)c4ncccc4C3=O)cc2C(F)(F)F)CC1

>  <label.class>
inactive

$$$$
>  <test.smiles>
COc1cc2c(c(OC)c1OC)C(=O)c1c-2n(CCCN)c(=O)c2cc([N+](=O)[O-])ccc12

>  <label.class>
inactive

$$$$
>  <test.smiles>
c1ccc(CN2CCC3(CC2)ONC2=NCCN23)cc1

>  <label.class>
inactive

$$$$
>  <test.smiles>
COc1cc(/C=C\c2cc(/C=C\c3ccc(O)c(OC)c3)n(C(=O)Nc3ccc(C(F)(F)F)cc3)n2)ccc1O

>  <label.class>
inactive

$$$$

---

System: MCF7 breast
assay.text: NCI tumour cell line growth inhibition, 48 h
observable: TGI

>  <compound>
O=c1cc2oc3ccc4ccccc4c3cc-2c(=O)[nH]1

>  <result>
38.5 µM

$$$$
>  <compound>
Nc1nc(N)c2ncn(Cc3c(Cl)cccc3Cl)c2n1

>  <result>
> 100 µM

$$$$
>  <compound>
Cc1ccc(-c2n[nH]c(CC#N)n2)cc1

>  <result>
> 100 µM

$$$$
>  <compound>
COC(=O)C1=C(O)C(C(=O)OC)[C@@]2(O)[C@@H](C(=O)OC)C(c3ccc(OC(=O)/C(=C/c4ccccc4)c4ccccc4)cc3)C[C@@H]1[C@@H]2C(=O)OC (stereo not given in full)

>  <result>
> 100 µM

$$$$
>  <compound>
CCOc1ccccc1N=NC1C(=O)N(C(=O)CC(=O)Nc2ccccc2Cl)N=C1C (stereo not given)

>  <result>
> 100 µM

$$$$
>  <compound>
CCCCCn1ncc(-c2c(O)c(O)cc3c(O)c(-c4c(C)cc5c(-c6cnn(CCCCC)n6)c(O)c(O)cc5c4O)c(C)cc23)n1

>  <result>
4.24 µM

$$$$
>  <compound>
NC(Cc1ccc2oc3cc(=O)c4ccccc4c-3nc2c1)C(=O)O (stereo not given)

>  <result>
11.2 µM

$$$$
>  <compound>
COC(=O)c1c(C)cccc1C1CN=NC12Cc1c(C)cccc1C2=O (stereo not given)

>  <result>
> 100 µM

$$$$
>  <compound>
c1ccc(N=C2SC(c3ccccc3)CN2C23CC4CC(CC(C4)C2)C3)cc1 (stereo not given)

>  <result>
> 100 µM

$$$$
>  <compound>
C[C@H](C(=O)N1C(=O)O[C@@H](c2ccccc2)[C@H]1C)[C@H](c1ccccc1)N(Cc1ccccc1)OC(=O)c1ccccc1

>  <result>
> 100 µM

$$$$
>  <compound>
Fc1ccc(C(OCCN2CC3CC2CN3CCCc2ccccc2)c2ccc(F)cc2)cc1 (stereo not given)

>  <result>
18.8 µM

$$$$
>  <compound>
COc1cc(C(CN)N(C)C)cc(OC)c1OC (stereo not given)

>  <result>
> 100 µM

$$$$
>  <compound>
Cc1ccccc1N=Nc1ccc(N=Nc2c(O)ccc3cc(S(=O)(=O)O)cc(S(=O)(=O)O)c23)c(C)c1

>  <result>
> 100 µM

$$$$
>  <compound>
CN1CCN(c2ccc(NC3=C(Cl)C(=O)c4ncccc4C3=O)cc2C(F)(F)F)CC1

>  <result>
4.23 µM

$$$$
>  <compound>
COc1cc(C)c(N(C)C(=O)CN(C)C)cc1Nc1nc(Nc2cccc(F)c2C(N)=O)c2cc[nH]c2n1

>  <result>
> 25 µM

$$$$
>  <compound>
Cc1c(Cl)c(S(N)(=O)=O)cc(S(N)(=O)=O)c1NC(=O)c1ccc(Cl)cc1

>  <result>
> 100 µM

$$$$
>  <compound>
COc1ccc(/C=C2/CCOC2=O)cc1

>  <result>
> 100 µM

$$$$
>  <compound>
Cc1ccc2c(c1)C(=O)C1(C2)Cc2ccc(C)cc2C1=O

>  <result>
> 100 µM

$$$$
>  <compound>
CN(C)c1ncc(-c2c[nH]c3ccccc23)nc1-c1c[nH]c2ccccc12

>  <result>
12.9 µM

$$$$
>  <compound>
CCCCCCCCOC(=O)c1cc(O)c(O)c(O)c1

>  <result>
26.7 µM

$$$$

---

Test system: SNB-19 CNS
assay.text: NCI tumour cell line growth inhibition, 48 h
observable: TGI

>  <test.smiles>
O=c1[nH]nc2c3n[nH]c(=O)n3c3ccccc3n12

>  <observable>
TGI

>  <result>
> 100 µM

$$$$
>  <test.smiles>
Oc1ccc2ccccc2c1N=Nc1ccc(N=Nc2ccccc2)cc1

>  <observable>
TGI

>  <result>
> 100 µM

$$$$
>  <test.smiles>
CN([N-]C(=O)CC(=O)[N-]N(C)C(=S)c1ccccc1)C(=S)c1ccccc1.[Cu+2]

>  <observable>
TGI

>  <result>
0.261 µM

$$$$
>  <test.smiles>
COc1ccc2c(CCNS(=O)(=O)c3ccccc3)c(C(C)=O)[nH]c2c1[N+](=O)[O-]

>  <observable>
TGI

>  <result>
> 100 µM

$$$$
>  <test.smiles>
CC(C)(C)c1cc2c(OP(c3ccccc3)c3ccccc3)c(c1)Cc1cc(C(C)(C)C)cc(c1OP(c1ccccc1)c1ccccc1)Cc1cc(C(C)(C)C)cc(c1OP(c1ccccc1)c1ccccc1)Cc1cc(C(C)(C)C)cc(c1OP(c1ccccc1)c1ccccc1)C2

>  <observable>
TGI

>  <result>
> 50 µM

$$$$
>  <test.smiles>
O=C1c2ccccc2C(=O)c2c1c(NCCNCCO)c1cc[nH]c1c2NCCNCCO

>  <observable>
TGI

>  <result>
12.9 µM

$$$$
>  <test.smiles>
O=[N+]([O-])/C(Cl)=C(\Sc1ccccc1)C(Cl)=C(Cl)Cl

>  <observable>
TGI

>  <result>
4.26 µM

$$$$
>  <test.smiles>
COc1ccc(C(F)(F)F)cc1NC(=O)O/N=C(/Cl)C(C)C

>  <observable>
TGI

>  <result>
42.6 µM

$$$$
>  <test.smiles>
COC(=O)c1c(C(=O)OC)c(C(=O)OC)c(C(=O)OC)c1C(=O)OC

>  <observable>
TGI

>  <result>
> 100 µM

$$$$

---

Entries annotated with measured TGI
System: 786-0 renal
assay.text: NCI tumour cell line growth inhibition, 48 h

>  <compound>
CC(=O)C1C(=O)C(=O)N(c2ccc(Cl)cc2C)C1=O (stereo not given)

>  <qualifier.symbol>
>

>  <TGI / µM>
100

$$$$
>  <compound>
c1ccc(CN2CCC3(CC2)ONC2=NCCN23)cc1

>  <qualifier.symbol>
>

>  <TGI / µM>
100

$$$$
>  <compound>
O=[N+]([O-])/C(Cl)=C(\Sc1ccccc1)C(Cl)=C(Cl)Cl

>  <qualifier.symbol>
=

>  <TGI / µM>
1.07

$$$$
>  <compound>
[O-]c1c(-c2ccccc2)[se]c(-c2ccccc2)[n+]1-c1ccccc1

>  <qualifier.symbol>
=

>  <TGI / µM>
22.5

$$$$
>  <compound>
CC(=O)[CH-]C(=O)c1ccccc1.CC(=O)[CH-]C(=O)c1ccccc1.[O-]c1ccc(O)cc1.[O-]c1ccc(O)cc1.[Ti+4]

>  <qualifier.symbol>
=

>  <TGI / µM>
26

$$$$
>  <compound>
Cc1ccc(-c2n[nH]c(=O)n2N)cc1

>  <qualifier.symbol>
>

>  <TGI / µM>
100

$$$$
>  <compound>
Cc1cc(Cl)ccc1OCC(=O)Oc1c(Cl)c(Cl)c(Cl)c(Cl)c1Cl

>  <qualifier.symbol>
=

>  <TGI / µM>
85.5

$$$$
>  <compound>
c1ccc2c(c1)[Se]c1ccccc1[Se]2

>  <qualifier.symbol>
>

>  <TGI / µM>
100

$$$$
>  <compound>
O=C1c2ccccc2C(=O)N1C/C=N/NS(=O)(=O)c1ccc(Cl)cc1

>  <qualifier.symbol>
>

>  <TGI / µM>
100

$$$$
>  <compound>
COC(=O)[C@@H]1C[C@H]2[C@H](c3ccccc3Br)[C@@H](OC(C)=O)[C@@H](OCc3ccccc3)ON2O1

>  <qualifier.symbol>
>

>  <TGI / µM>
100

$$$$
